# test_system: HLA-A*02:01 (Homo sapiens, UniProt P04439, D140Y/D185E/D98H/E176V/E277Q/G131W/G231S/I119V/I121R/I166T/I218V/L300P/L318F/N151K/N90K/P208A/P217A/Q86G/Q94H/R138H/R169H/T345S)
# method_notes: MHC binding assay (UV-ligand exchange, beta2m ELISA)
# conditions: binding to HLA-A*02:01 ranged by peptide exchange yield (UV-ligand exchange, β2m ELISA)
property: Peptide exchange

Below are worked cases with known answers.
92 (YLIPFTGIVGL; listed as Homo sapiens) [compound 92]    “++” (≥20% = ++)
354 (LILEGVDTV; listed as Homo sapiens) [compound 354]    “++” (≥20% = ++)
198 (KTINKVPTV; listed as Homo sapiens) [compound 198]    “+++” (≥50 = +++)
309 (GLFDGVPTTA; listed as Homo sapiens) [compound 309]    “+++” (≥50 = +++)
80 (FLYDNLVESL; listed as Homo sapiens) [compound 80]    “++” (≥20% = ++)
452 (ILLEHGADPNL; listed as Homo sapiens) [compound 452]    “+++” (≥50 = +++)
355 (SIQQSIERLLV; listed as Homo sapiens) [compound 355]    “++” (≥20% = ++)
386 (ILFRYPLTI; listed as Homo sapiens) [compound 386]    “+++” (≥50 = +++)

Value sought for every listed substance: Peptide exchange.
1. 504 (GLSDGNPSL; listed as Homo sapiens) [compound 504]
2. 493 (GLLGEKTQDLIGV; listed as Homo sapiens) [compound 493]
3. 1 (SLMEPPAVLLL; listed as Homo sapiens) [compound 1]
4. 74 (ALLDPEVLSIFV; listed as Homo sapiens) [compound 74]

Reply:
["“++” (≥20% = ++)", "“+++” (≥50 = +++)", "“+++” (≥50 = +++)", "“+++” (≥50 = +++)"]
